target: UniProt O94768; assay: KINOMEscan competition binding; conditions: compound 10.0 µM
Sequence (O94768 whole entry, looked up): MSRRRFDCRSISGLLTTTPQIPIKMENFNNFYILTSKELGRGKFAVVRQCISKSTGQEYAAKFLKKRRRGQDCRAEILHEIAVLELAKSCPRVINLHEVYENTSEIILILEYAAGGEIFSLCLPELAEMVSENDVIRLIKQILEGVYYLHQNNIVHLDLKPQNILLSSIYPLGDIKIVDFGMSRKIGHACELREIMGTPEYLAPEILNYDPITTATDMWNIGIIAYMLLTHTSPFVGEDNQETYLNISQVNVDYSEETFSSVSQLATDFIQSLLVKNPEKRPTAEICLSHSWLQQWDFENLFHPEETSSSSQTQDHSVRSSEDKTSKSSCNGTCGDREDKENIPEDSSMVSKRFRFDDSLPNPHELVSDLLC
Quantity Measured: kinase still bound, per cent of control
Answer with the figure and its unit, nothing else.

Param item = `CS(=O)(=O)N1CCN(Cc2cc3nc(-c4cccc5[nH]ncc45)nc(N4CCOCC4)c3s2)CC1` ; retrieve measured kinase still bound, per cent of control.
100%

Please look up its kinase still bound, per cent of control: `C=CC(=O)Nc1ccc(CN(C(=O)Nc2c(Cl)c(OC)cc(OC)c2Cl)c2cc(Nc3ccc(N4CCN(C)CC4)cc3)ncn2)cc1`
100%

Could you share which kinase still bound, per cent of control value was measured for `COCC(=O)NC/C=C/c1ccc2ncnc(Nc3ccc(Oc4ccc(C)nc4)c(C)c3)c2c1` ?
100%

----------
Give measured kinase still bound, per cent of control for each item. Keep answers brief.
biological target: CSNK1A1L (human); experiment: KINOMEscan competition binding; settings: compound 10.0 µM
Give just the number in %; leave the unit off.

Param readout= kinase still bound, per cent of control; system= CSNK1A1L (human); entry= `COc1cc2ncn(-c3cc(OCc4ccccc4C(F)(F)F)c(C(N)=O)s3)c2cc1OC` ; returns value.
78

Could you share what kinase still bound, per cent of control was measured for `CCN(CC)CCCCNc1ncc2c(n1)N(C)C(=O)N(c1c(Cl)c(OC)cc(OC)c1Cl)C2` , tested on CSNK1A1L (human)?
100

Item `O=c1cc(N2CCOCC2)oc2c(-c3cccc4c3sc3ccccc34)cccc12` with CSNK1A1L (human) - kinase still bound, per cent of control?
92

Form entry - test system: CSNK1A1L (human); read-out: kinase still bound, per cent of control; molecule: `COCC(=O)NC/C=C/c1ccc2ncnc(Nc3ccc(Oc4ccc(C)nc4)c(C)c3)c2c1`
82

----------
molecular target: PRKCI (human); test: KINOMEscan competition binding; details: compound 10.0 µM
Can you tell me kinase still bound, per cent of control for the items I'm about to list?
I'd appreciate it if you wrote the number followed by its unit.

Name the reported kinase still bound, per cent of control value associated with the compound `COc1cc2ncn(-c3cc(OCc4ccccc4C(F)(F)F)c(C(N)=O)s3)c2cc1OC`
72%

# lookup: kinase still bound, per cent of control of `C[C@@H](Oc1cc(-c2cnn(C3CCNCC3)c2)cnc1N)c1c(Cl)ccc(F)c1Cl`
35%

Value lookup for kinase still bound, per cent of control; key = `COc1cc(C(=O)N2CCC(N3CCN(C)CC3)CC2)ccc1Nc1ncc2c(n1)N(C)c1ccccc1C(=O)N2C`
100%

// kinase still bound, per cent of control lookup, key: `O=C1NC(=O)/C(=C/c2ccc3nccc(-c4ccncc4)c3c2)S1`
67%

Entry `CCN1CCN(C(=O)Cc2ccc(Nc3ncc(F)c(Nc4ccc(C(=O)Nc5ccccc5Cl)cc4)n3)cc2)CC1` : reported kinase still bound, per cent of control = ?
77%

----------
Give kinase still bound, per cent of control for every item shown.
target: DDR1 (human); test: KINOMEscan competition binding; conditions: compound 10.0 µM
// units = %; emit number, no label

Name the recorded kinase still bound, per cent of control for `C=CC(=O)Nc1cc(-n2c(=O)ccc3cnc4ccc(-c5cn[nH]c5)cc4c32)ccc1C` .
67

What kinase still bound, per cent of control value was documented for this molecule, `CCN(CC)CCCCNc1ncc2cc(-c3cc(OC)cc(OC)c3)c(NC(=O)NC(C)(C)C)nc2n1` ?
1.1

Look up kinase still bound, per cent of control: `Cc1n[nH]c2ccc(-c3cncc(OC[C@@H](N)Cc4c[nH]c5ccccc45)c3)cc12`
100

Any idea what kinase still bound, per cent of control was measured for `C[C@@H](Oc1cc(-c2cnn(C3CCNCC3)c2)cnc1N)c1c(Cl)ccc(F)c1Cl` ?
0.4

Quick one: kinase still bound, per cent of control of `O=C1NC(=O)/C(=C/c2ccc3nccc(-c4ccncc4)c3c2)S1` ?
62

May I ask what kinase still bound, per cent of control has been recorded for `N#CCNC(=O)c1ccc(-c2ccnc(Nc3ccc(N4CCOCC4)cc3)n2)cc1` ?
100

Which measured kinase still bound, per cent of control value corresponds to `COc1cc(C(=O)N2CCC(N3CCN(C)CC3)CC2)ccc1Nc1ncc2c(n1)N(C)c1ccccc1C(=O)N2C` ?
100

Quick one: kinase still bound, per cent of control of `C=CC(=O)Nc1ccc(CN(C(=O)Nc2c(Cl)c(OC)cc(OC)c2Cl)c2cc(Nc3ccc(N4CCN(C)CC4)cc3)ncn2)cc1` ?
0

Param item = `CN(C)C/C=C/C(=O)Nc1ccc(C(=O)Nc2cccc(Nc3nccc(-c4cccnc4)n3)c2)cc1` ; retrieve measured kinase still bound, per cent of control.
100

Bench note: what kinase still bound, per cent of control did `CNC(=O)c1cc(Oc2ccc(NC(=O)Nc3ccc(Cl)c(C(F)(F)F)c3)cc2)ccn1` show?
0

# get_value(readout='kinase still bound, per cent of control', item= `CCN1CCN(C(=O)Cc2ccc(Nc3ncc(F)c(Nc4ccc(C(=O)Nc5ccccc5Cl)cc4)n3)cc2)CC1` )
22

# lookup: kinase still bound, per cent of control of `O=c1cc(N2CCOCC2)oc2c(-c3cccc4c3sc3ccccc34)cccc12`
100

Look up kinase still bound, per cent of control: `CCN(CC)CCCCNc1ncc2c(n1)N(C)C(=O)N(c1c(Cl)c(OC)cc(OC)c1Cl)C2`
0.15
